Data provenance is patent US7452997B2.

# target-under-test: human CB2 receptor (Homo sapiens, UniProt P34972)
# Sequence (P34972 whole entry): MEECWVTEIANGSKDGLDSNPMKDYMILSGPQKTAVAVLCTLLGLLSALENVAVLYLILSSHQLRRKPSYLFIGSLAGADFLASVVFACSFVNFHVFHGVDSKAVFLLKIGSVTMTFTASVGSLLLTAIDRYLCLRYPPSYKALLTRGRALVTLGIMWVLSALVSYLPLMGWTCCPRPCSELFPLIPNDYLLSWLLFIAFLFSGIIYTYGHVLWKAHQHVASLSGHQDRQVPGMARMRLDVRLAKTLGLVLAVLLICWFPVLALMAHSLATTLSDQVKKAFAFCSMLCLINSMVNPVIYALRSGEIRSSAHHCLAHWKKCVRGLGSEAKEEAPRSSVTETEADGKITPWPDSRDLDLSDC
# protocol-summary: Binding assay, cannabinoid CB2 receptor ([3H]-CP-55,940 displacement)
# condition-details: Cannabinoid CB2 Receptor Binding IC50, human CB2 receptor, SK-N-MC cell membranes, radioligand CP-55,940 0.2 nM
Record form. Attribute: IC50. Fill in for each entry.
One number for each entry, in nM.

compound | IC50 [nM]
CC(NC(=O)Nc1nn(C2CCCCC2)c2c1CCCC2)C1CCCCC1 (stereo not drawn) | 980
CCOC(=O)[C@H]1C2C=CC(C2)[C@H]1NC(=O)c1nn(C2CCCCC2)c2c1CCCC2 (stereo partly drawn) | 830

The recorded IC50 for entry O=C(NN1CCCCC1)c1nn(-c2ccc(Cl)cc2Cl)c2c1CCC/C2=C\c1ccc(Cl)cc1 equals 1000
